Tested on: blackgrass (Alopecurus myosuroides)
experiment-summary: Test B pre-/postemergence plant response
Format: in vivo
test-parameters: Postemergence, 250 g ai/ha; scale 0 to 100
Hi there, I'd appreciate the recorded Blackgrass plant response rating for every entry that follows.
// no unit string in output, number only

Record request: Blackgrass plant response rating value, item Cc1cccc(Cl)c1-n1c(-c2ccccc2)ncc(C(=O)C2=C(O)CCCC2=O)c1=O [Compound 46]
10

Need Blackgrass plant response rating, item O=C1CCCC(O)=C1C(=O)c1cnc(-c2ccccc2)n(-c2cccc(Br)c2)c1=O [Compound 38]
40

Recorded Blackgrass plant response rating of COc1ccc(-n2c(-c3ccccc3)ncc(C(=O)C3=C(O)CCCC3=O)c2=O)cc1 [Compound 4] , please.
50

Need Blackgrass plant response rating of CCCCc1ncc(C(=O)C2=C(O)CCCC2=O)c(=O)n1-c1ccccc1 [Compound 42] , thanks.
20

Any idea what Blackgrass plant response rating was measured for Cc1ccc(F)cc1-n1c(-c2ccccc2)ncc(C(=O)C2=C(O)CCCC2=O)c1=O [Compound 44] ?
30

Query: Blackgrass plant response rating; subject: O=C1CCCC(O)=C1C(=O)c1cnc(-c2ccccc2)n(-c2ccccc2F)c1=O [Compound 26]
40

###

Test system: wheat (Triticum aestivum)
experiment-summary: Test A pre-/postemergence plant response
Type: in vivo
test-parameters: Postemergence, 500 g ai/ha; 0 to 100 scale, 0 = no effect, 100 = complete control; approx. ten days
Exam item: assign Satisfied to entries whose Plant response rating, Wheat is below 10 and Not satisfied to entries at or above 10. Note that a value of exactly 10 receives Not satisfied.

Record Cc1ccccc1-c1ncc(C(=O)C2=C(O)CCCC2=O)c(=O)n1-c1ccccc1 : is its Plant response rating, Wheat strictly below 10?
Satisfied

I'd appreciate it if you could check whether CCCCc1ncc(C(=O)C2=C(O)CCCC2=O)c(=O)n1-c1cccc(C)c1 has Plant response rating, Wheat smaller than 10.
Satisfied

Is it true that Plant response rating, Wheat reported for CCCn1c(-c2cc(F)cc(F)c2)ncc(C(=O)C2=C(O)CCCC2=O)c1=O is less than 10?
Not satisfied

Lab note: confirm whether the reported Plant response rating, Wheat for this compound is below 10, equality not counting. compound: CCCc1ncc(C(=O)C2=C(O)CCCC2=O)c(=O)n1CC1CCCO1 (centres unmarked)
Not satisfied

Does this compound meet the criterion Plant response rating, Wheat < 10? Cc1c(Cl)cccc1-n1c(-c2ccccc2)ncc(C(=O)C2=C(O)CCCC2=O)c1=O
Satisfied

Regarding O=C1CCCC(O)=C1C(=O)c1cnc(C2CCCCC2)n(-c2ccccc2)c1=O , kindly confirm whether its Plant response rating, Wheat is beneath 10.
Satisfied

Please state whether Plant response rating, Wheat is below 10 for CCCn1c(-c2cc(C)cc(C)c2)ncc(C(=O)C2=C(O)CCCC2=O)c1=O
Not satisfied

Plant response rating, Wheat under 10? Item: CCCCn1c(-c2cccc(Cl)c2)ncc(C(=O)C2=C(O)CCCC2=O)c1=O
Not satisfied

Does the reported Plant response rating, Wheat of the following compound sit strictly below 10? O=C1CCCC(O)=C1C(=O)c1cnc(-c2ccccc2Br)n(-c2ccccc2)c1=O
Satisfied

Check if Plant response rating, Wheat falls below 10 for Cc1ccc(-n2c(-c3ccccc3)ncc(C(=O)C3=C(O)CCCC3=O)c2=O)c(C)c1 .
Satisfied

Take the compound Cn1c(-c2ccccc2)ncc(C(=O)C2=C(O)CCCC2=O)c1=O and say whether its Plant response rating, Wheat is less than 10.
Satisfied

Dear colleague, could you confirm whether Plant response rating, Wheat of O=C1CCCC(O)=C1C(=O)c1cnc(-c2ccccc2)n(-c2cccc(F)c2)c1=O falls below 10? Thanks.
Satisfied
